Listing of recorded A/G by entry.
Species: Rattus norvegicus
assayOverview: Open TG-GATES - Regimen: Single
Assay type: toxicity, organism-based, Sprague-Dawley
Design: regimen Single, gender Male, age 6 weeks
measurementConditions: in vivo, po, 100 mg/kg, 3 h, tissue Plasma, route gavage, dose level Low
assayEndpoint: A/G

INSERT INTO results (moleculesmiles, assayendpoint, obsvalue) VALUES
  ('O=C(OC[C@H]1O[C@@H](OC(=O)c2cc(O)c(O)c(OC(=O)c3cc(O)c(O)c(O)c3)c2)[C@H](OC(=O)c2cc(O)c(O)c(OC(=O)c3cc(O)c(O)c(O)c3)c2)[C@@H](OC(=O)c2cc(O)c(O)c(OC(=O)c3cc(O)c(O)c(O)c3)c2)[C@@H]1OC(=O)c1cc(O)c(O)c(OC(=O)c2cc(O)c(O)c(O)c2)c1)c1cc(O)c(O)c(OC(=O)c2cc(O)c(O)c(O)c2)c1', 'A/G', 2),
  ('CN/C(=N/CCSCc1nc[nH]c1C)NC#N', 'A/G', 1.7),
  ('CNC(=C[N+](=O)[O-])NCCSCc1ccc(CN(C)C)o1', 'A/G', 1.6),
  ('Cc1nnc2n1-c1ccc(Cl)cc1C(c1ccccc1Cl)=NC2', 'A/G', 0.9);

* * *

Listing of recorded Ret by entry.
Organism: Rattus norvegicus
assayOverview: Open TG-GATES - Regimen: Daily Repeat
Type: toxicity, organism-based, Sprague-Dawley
Set-up: regimen Daily Repeat, gender Male, age 6 weeks
measurementConditions: in vivo, po, 0 mg/kg, 72 h, tissue Blood, route gavage, dose level Control, time 3 day
assayEndpoint: Ret (%)

INSERT INTO measurements (molecule, assayendpoint, unitannotation, obsvalue) VALUES
  ('O=C(OC[C@H]1O[C@@H](OC(=O)c2cc(O)c(O)c(OC(=O)c3cc(O)c(O)c(O)c3)c2)[C@H](OC(=O)c2cc(O)c(O)c(OC(=O)c3cc(O)c(O)c(O)c3)c2)[C@@H](OC(=O)c2cc(O)c(O)c(OC(=O)c3cc(O)c(O)c(O)c3)c2)[C@@H]1OC(=O)c1cc(O)c(O)c(OC(=O)c2cc(O)c(O)c(O)c2)c1)c1cc(O)c(O)c(OC(=O)c2cc(O)c(O)c(O)c2)c1', 'Ret', '%', 8.3),
  ('Nc1c2c(nc3ccccc13)CCCC2', 'Ret', '%', 6.4),
  ('Brc1ccccc1', 'Ret', '%', 7.8),
  ('CCCc1cc(=O)[nH]c(=S)[nH]1', 'Ret', '%', 7.6),
  ('CC(C)NNC(=O)c1ccncc1', 'Ret', '%', 7.5),
  ('COC(=O)C1=C(C)NC(C)=C(C(=O)OC)C1c1ccccc1[N+](=O)[O-]', 'Ret', '%', 7.5),
  ('CN1C(=O)CCS(=O)(=O)C1c1ccc(Cl)cc1 (stereo not drawn)', 'Ret', '%', 6.7),
  ('CCOc1ccc(NC(C)=O)cc1', 'Ret', '%', 6.6),
  ('CN/C(=N/CCSCc1nc[nH]c1C)NC#N', 'Ret', '%', 6.3),
  ('NC1=NC(=O)C(c2ccccc2)O1 (stereo not drawn)', 'Ret', '%', 8),
  ('Cc1nnc2n1-c1ccc(Cl)cc1C(c1ccccc1Cl)=NC2', 'Ret', '%', 7.4),
  ('CNC(=C[N+](=O)[O-])NCCSCc1ccc(CN(C)C)o1', 'Ret', '%', 5.1),
  ('CN(C)CCC(c1ccc(Cl)cc1)c1ccccn1 (stereo not drawn)', 'Ret', '%', 6.9);

* * *

Organism: Rattus norvegicus
assayOverview: Open TG-GATES - Regimen: Single
Assay type: toxicity, organism-based, Sprague-Dawley
Parameters: regimen Single, gender Male, age 6 weeks
measurementConditions: in vivo, po, 100 mg/kg, 6 h, tissue Blood, route gavage, dose level Low
assayEndpoint: Ht (%)

INSERT INTO results (moleculesmiles, assayendpoint, obsvalue) VALUES
  ('COC(=O)C1=C(C)NC(C)=C(C(=O)OC)C1c1ccccc1[N+](=O)[O-]', 'Ht', 39.2),
  ('Cc1nnc2n1-c1ccc(Cl)cc1C(c1ccccc1Cl)=NC2', 'Ht', 42.5),
  ('O=C(OC[C@H]1O[C@@H](OC(=O)c2cc(O)c(O)c(OC(=O)c3cc(O)c(O)c(O)c3)c2)[C@H](OC(=O)c2cc(O)c(O)c(OC(=O)c3cc(O)c(O)c(O)c3)c2)[C@@H](OC(=O)c2cc(O)c(O)c(OC(=O)c3cc(O)c(O)c(O)c3)c2)[C@@H]1OC(=O)c1cc(O)c(O)c(OC(=O)c2cc(O)c(O)c(O)c2)c1)c1cc(O)c(O)c(OC(=O)c2cc(O)c(O)c(O)c2)c1', 'Ht', 37.9),
  ('CNC(=C[N+](=O)[O-])NCCSCc1ccc(CN(C)C)o1', 'Ht', 37.1),
  ('CN/C(=N/CCSCc1nc[nH]c1C)NC#N', 'Ht', 38);

* * *

Organism: Rattus norvegicus
assayOverview: Open TG-GATES - Regimen: Daily Repeat
Assay type: toxicity, organism-based, Sprague-Dawley
Design: regimen Daily Repeat, gender Male, age 6 weeks
measurementConditions: in vivo, po, 1000 mg/kg, 72 h, tissue Plasma, route gavage, dose level High, time 3 day
Listing of recorded TC by entry.
assayEndpoint: TC

INSERT INTO results (moleculesmiles, obsvalue) VALUES
  ('Cc1nnc2n1-c1ccc(Cl)cc1C(c1ccccc1Cl)=NC2', '81.2 mg/dL'),
  ('CN/C(=N/CCSCc1nc[nH]c1C)NC#N', '79.8 mg/dL'),
  ('O=C(OC[C@H]1O[C@@H](OC(=O)c2cc(O)c(O)c(OC(=O)c3cc(O)c(O)c(O)c3)c2)[C@H](OC(=O)c2cc(O)c(O)c(OC(=O)c3cc(O)c(O)c(O)c3)c2)[C@@H](OC(=O)c2cc(O)c(O)c(OC(=O)c3cc(O)c(O)c(O)c3)c2)[C@@H]1OC(=O)c1cc(O)c(O)c(OC(=O)c2cc(O)c(O)c(O)c2)c1)c1cc(O)c(O)c(OC(=O)c2cc(O)c(O)c(O)c2)c1', '85 mg/dL'),
  ('CNC(=C[N+](=O)[O-])NCCSCc1ccc(CN(C)C)o1', '80 mg/dL'),
  ('CCOc1ccc(NC(C)=O)cc1', '111.8 mg/dL'),
  ('COC(=O)C1=C(C)NC(C)=C(C(=O)OC)C1c1ccccc1[N+](=O)[O-]', '67.2 mg/dL');

* * *

Species: Rattus norvegicus
assayOverview: Open TG-GATES - Regimen: Single
Type: toxicity, organism-based, Sprague-Dawley
Parameters: regimen Single, gender Male, age 6 weeks
measurementConditions: in vivo, po, 300 mg/kg, 24 h, tissue Plasma, route gavage, dose level Middle
assayEndpoint: IP (mg/dL)

INSERT INTO assay_data (moleculesmiles, obsvalue) VALUES
  ('Cc1nnc2n1-c1ccc(Cl)cc1C(c1ccccc1Cl)=NC2', 9.2),
  ('COC(=O)C1=C(C)NC(C)=C(C(=O)OC)C1c1ccccc1[N+](=O)[O-]', 8.3),
  ('CN/C(=N/CCSCc1nc[nH]c1C)NC#N', 7.4),
  ('CNC(=C[N+](=O)[O-])NCCSCc1ccc(CN(C)C)o1', 7.6),
  ('O=C(OC[C@H]1O[C@@H](OC(=O)c2cc(O)c(O)c(OC(=O)c3cc(O)c(O)c(O)c3)c2)[C@H](OC(=O)c2cc(O)c(O)c(OC(=O)c3cc(O)c(O)c(O)c3)c2)[C@@H](OC(=O)c2cc(O)c(O)c(OC(=O)c3cc(O)c(O)c(O)c3)c2)[C@@H]1OC(=O)c1cc(O)c(O)c(OC(=O)c2cc(O)c(O)c(O)c2)c1)c1cc(O)c(O)c(OC(=O)c2cc(O)c(O)c(O)c2)c1', 9.1);

* * *

Organism: Rattus norvegicus
assayOverview: Open TG-GATES - Regimen: Single
Format: toxicity, organism-based, Sprague-Dawley
Set-up: regimen Single, gender Male, age 6 weeks
measurementConditions: in vivo, po, 300 mg/kg, 9 h, route gavage, dose level Middle
So basically: TERMINAL_BW at 200 g or higher? That is Condition met. Lower than 200 g? That is Condition not met.

INSERT INTO results (moleculesmiles, assignedlabel) VALUES
  ('COC(=O)C1=C(C)NC(C)=C(C(=O)OC)C1c1ccccc1[N+](=O)[O-]', 'Condition met'),
  ('CNC(=C[N+](=O)[O-])NCCSCc1ccc(CN(C)C)o1', 'Condition met'),
  ('CN/C(=N/CCSCc1nc[nH]c1C)NC#N', 'Condition met'),
  ('O=C(OC[C@H]1O[C@@H](OC(=O)c2cc(O)c(O)c(OC(=O)c3cc(O)c(O)c(O)c3)c2)[C@H](OC(=O)c2cc(O)c(O)c(OC(=O)c3cc(O)c(O)c(O)c3)c2)[C@@H](OC(=O)c2cc(O)c(O)c(OC(=O)c3cc(O)c(O)c(O)c3)c2)[C@@H]1OC(=O)c1cc(O)c(O)c(OC(=O)c2cc(O)c(O)c(O)c2)c1)c1cc(O)c(O)c(OC(=O)c2cc(O)c(O)c(O)c2)c1', 'Condition not met'),
  ('Cc1nnc2n1-c1ccc(Cl)cc1C(c1ccccc1Cl)=NC2', 'Condition not met');
